- TESTED SYSTEM: T1, human PD-L1 expressed on CHO-K1 cells (Genscript, Cat #M00543) (human, UniProt Q9NZQ7 19-290)
- T1 construct: also called PD-L1 cell line
- T1 sequence (Q9NZQ7 19-290, one chain of several): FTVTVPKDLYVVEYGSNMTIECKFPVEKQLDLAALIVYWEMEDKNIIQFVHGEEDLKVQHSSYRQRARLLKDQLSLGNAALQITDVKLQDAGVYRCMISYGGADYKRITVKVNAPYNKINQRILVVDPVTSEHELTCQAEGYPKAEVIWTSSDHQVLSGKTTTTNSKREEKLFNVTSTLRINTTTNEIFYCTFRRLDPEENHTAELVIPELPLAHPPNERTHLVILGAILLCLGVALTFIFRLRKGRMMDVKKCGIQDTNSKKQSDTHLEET
- ASSAY NOTES: FACS competition vs biotin-PD-1-Fc on CHO-K1/human PD-L1 cells
Some binders, each annotated with its measured IC50.
API: value field is a number in nM; no unit string.

53C1F3D4 (antibody, V domains shown, Mouse mAb from hybridoma culture; also called mouse 53C1F3D4) VH: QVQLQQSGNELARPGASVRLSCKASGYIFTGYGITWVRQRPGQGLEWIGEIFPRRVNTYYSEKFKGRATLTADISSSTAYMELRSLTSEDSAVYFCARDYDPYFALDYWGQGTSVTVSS VL: DIVMTQSHKFMSTSVGDRVSITCKASQDVSTAVDWYQQKPGQSPKLLIYSASYRYTGVPDRFTGSGSGTAFTFTISGEQAEDLAVYYCQQHYSIPFTFGGGTKLEIK    1.27

Continue with the next binder.
*Q* Any idea what its IC50 is? The binder is 30A6B2D9 (antibody, V domains shown, Mouse mAb from hybridoma culture) VH: EGQLQQSGAGLVKPGASVNLSCTASGFNIKDTYIHWMKQRPEQGLEWIGRIAPTNGNTKYDPTFQGKATITADSSSNTAYLQVSSLTSEDTAVYYCSRGGIYYYGSHWYFDVWGAGTTVTVSS VL: SVLMTQTPLSLPVSLGDQASISCRSSQNIVYSDGDTYLEWYLQKPGQSPKLLIFKVSNRFFGVPDRFSGSGSGTDFTLKINRVEAEDLGVYYCFQGSHVPFTFGSGTKLEIK
*A* 8.35
